# target_under_test: T1, FcRL4, overexpressed on 3T3 cells (UniProt Q96PJ5 20-515, limits assumed)
# T1 construct: whole, on cells
# T1 sequence (looked up): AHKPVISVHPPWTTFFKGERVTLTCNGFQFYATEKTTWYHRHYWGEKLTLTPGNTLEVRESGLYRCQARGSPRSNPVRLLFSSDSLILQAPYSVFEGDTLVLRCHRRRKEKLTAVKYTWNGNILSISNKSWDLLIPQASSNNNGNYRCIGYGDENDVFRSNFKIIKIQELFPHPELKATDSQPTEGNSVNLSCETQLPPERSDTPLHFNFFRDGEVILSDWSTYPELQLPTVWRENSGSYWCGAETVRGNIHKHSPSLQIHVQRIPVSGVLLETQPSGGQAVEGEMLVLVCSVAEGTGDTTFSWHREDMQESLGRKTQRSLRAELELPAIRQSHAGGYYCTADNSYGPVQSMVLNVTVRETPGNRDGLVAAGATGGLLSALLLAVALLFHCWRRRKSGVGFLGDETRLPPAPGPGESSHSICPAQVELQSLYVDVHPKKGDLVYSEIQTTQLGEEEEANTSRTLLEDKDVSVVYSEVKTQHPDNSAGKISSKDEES
# test_protocol: phage clone on 3T3-FcRL4 cells

{"columns": ["binder", "binding result"],
 "data": [
  ["ET200-038 (scFv, screened as phage clone; entry is VL-linker-VH-His tag-HA tag) scFv: QSVLTQPPSVSGAPGQRVTISCTGSSSNIGAGFDVHWYQLLPGTAPKLLIYANSNRPSGVPDRFSGSKSGTSASLAITGLLAEDEADYYCQSYDSSLSGVVFGGGTKLTVLGSRGGGGSGGGGSGGGGSLEMAQVQLVQSGAEVKKPGSSVKVSCKASGGTFSSYAISWVRQAPGQGLEWMGGIIPIFGTANYAQKFQGRVTITADESTSTAYMELSSLRSEDTAVYYCARGASFDRHDNWGQGTLVTVSSTSGQAGQHHHHHHGAYPYDVPDYAS", "no binding"],
  ["ET200-015 (scFv, screened as phage clone; entry is VL-linker-VH-His tag-HA tag) scFv: QSVVTQPPSVSVAPGKTARITCGGNNIGSKSVHWYQQKPGQAPVLVIYYDSDRPSGIPERFSGSNSGNTATLTISRVEAGDEADYYCQVWDSSSDVVFGGGTKLTVLGSRGGGGSGGGGSGGGGSLEMAEVQLVQSGAEVKKPGASVKVSCKASGYTFTSYGISWVRQAPGQGLEWMGWISAYNGNTNYAQKLQGRVTMTTDTSTSTAYMELRSLRSDDTAVYYCARWGGFGAVDHWGQGTLVTVSSTSGQAGQHHHHHHGAYPYDVPDYAS", "no binding"]
]}
